Attribution: PubChem BioAssay (NCI)

Test system: 786-0 renal
assay_method_text: NCI-60 one-dose screen, 48 h
run_conditions: 10 µM unless noted
Compounds without any hit were thinned out: in the full panel of roughly 83,000, 20% have a hit. The source made the active and inactive calls. The calls were made as follows: active = growth percent below 10; inactive = the rest.
Bench note: report the call from t = active, f = inactive

Please review the following examples before continuing.
[in] Give the logged outcome of this assay for the following compound: CC1=CC(=Nc2ccc(N(C)C)cc2)C=C(C)C1=O
[out] f

[in] Give the logged outcome of this assay for the following compound: O=C(NC(=S)N1CC=CCC1)c1ccccc1
[out] f

Next:
[in] Give the logged outcome of this assay for the following compound: CC(=O)NCNC(C)=O
[out] f

[in] Give the logged outcome of this assay for the following compound: Cc1cccc2ccccc12
[out] f

[in] Give the logged outcome of this assay for the following compound: CC1CCC(C(C)(C)[N+](C)(C)C)CC1 (configuration not stated)
[out] f

---

System: SK-OV-3 ovarian
assay_method_text: NCI-60 one-dose screen, 48 h (100 = growth as untreated, 0 = no growth, -100 = all killed)
run_conditions: 10 µM unless noted
About 83,000 compounds went through this panel and 20% of them were active in at least one assay; those are over-represented in the sample as a whole. The source made the active and inactive calls. How the source made its calls: active means growth percent below 10; inactive means the rest.
metric_name: growth

[in] Find the recorded growth belonging to O=C(Nc1c(Cl)cc(Cl)cc1Cl)ON=C1CCCCC1 and report it.
[out] 114% (inactive)

[in] Find the recorded growth belonging to CCCCNc1ccc(-c2ccc(NCCCC)cc2)cc1 and report it.
[out] 94.5% (inactive)

[in] Find the recorded growth belonging to Cc1ccc(N2C(=O)c3cccc4c(N)c(S(=O)(=O)O)cc(c34)C2=O)cc1 and report it.
[out] 106% (inactive)

[in] Find the recorded growth belonging to Cc1ccc[n+](CCC(N)=O)c1 and report it.
[out] 94.7% (inactive)

[in] Find the recorded growth belonging to O=c1nc(Nc2cccc(Cl)c2)oc2cc(Cl)oc(=O)c12 and report it.
[out] 98.4% (inactive)

[in] Find the recorded growth belonging to CCOP(=O)(OCC)/C(=C\N1C(=O)CC(=O)NC1=S)C(=O)OC and report it.
[out] 104% (inactive)

---

Tested on: NCI-H460 lung
assay_method_text: NCI-60 one-dose screen, 48 h (100 = growth as untreated, 0 = no growth, -100 = all killed)
run_conditions: 10 µM unless noted
The panel holds about 83,000 compounds, 20% with a hit somewhere; the sample as a whole holds those more often.
metric_name: growth (%)
Note: unit % is implicit; provide only the numeric part.

[in] Find the recorded growth belonging to CCNc1ccc2ccccc2c1N=Nc1ccc(N=Nc2ccccc2)cc1 and report it.
[out] 84.7

[in] Find the recorded growth belonging to Cc1cc2c(C(C)C)c(O)c(O)c(C=Nc3ccccc3[N+](=O)[O-])c2c(O)c1-c1c(C)cc2c(C(C)C)c(O)c(O)c(C=Nc3ccccc3[N+](=O)[O-])c2c1O and report it.
[out] 87

[in] Find the recorded growth belonging to CCOc1ccc(NC(=S)N2CCC(CCCC3CCN(C(=S)Nc4ccc(OCC)cc4)CC3)CC2)cc1 and report it.
[out] 91.5

[in] Find the recorded growth belonging to Cc1onc(-c2c(F)cccc2Cl)c1-c1ncc(-c2ccc(Br)cc2)o1 and report it.
[out] 4.75

[in] Find the recorded growth belonging to CCOc1ccc(C(=O)NCC(C)C)cc1 and report it.
[out] 103

Next:
[in] Find the recorded growth belonging to CN(C)Cc1ccccn1 and report it.
[out] 109
